system-tested: recombinant human AKR1C3 (Homo sapiens, UniProt P42330)
Construct: GST (cleaved yes)
Sequence (P42330 1-323): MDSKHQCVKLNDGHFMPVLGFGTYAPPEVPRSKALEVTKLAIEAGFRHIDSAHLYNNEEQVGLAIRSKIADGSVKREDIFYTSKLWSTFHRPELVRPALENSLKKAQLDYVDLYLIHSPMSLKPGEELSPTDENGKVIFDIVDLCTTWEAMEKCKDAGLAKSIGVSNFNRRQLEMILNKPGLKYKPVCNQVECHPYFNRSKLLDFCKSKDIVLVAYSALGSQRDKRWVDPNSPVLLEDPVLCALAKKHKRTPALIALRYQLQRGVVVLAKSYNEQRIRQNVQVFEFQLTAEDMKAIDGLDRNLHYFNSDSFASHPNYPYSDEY
procedure-details: AKR1C3-inhibitory activity assay (generation of Coumberol from Coumberone)
recorded-conditions: Coumberone 0.3 μM, NADPH 10 μM, 22° C., typically 90 min, average or median values
pIC50: −log10 of the molar value.
# binarize pIC50: threshold 8 inclusive, high side Condition met, low side Condition not met

• CC1(C)CN(C(=O)c2cnn[nH]2)CCN1S(=O)(=O)c1cccc2nsnc12 [Example 121] = Condition not met
• C[C@@H]1CN(C(=O)c2cnn[nH]2)[C@@H](C)CN1S(=O)(=O)c1cccc2ccccc12 [Example 65] = Condition met
• COc1cc(F)ccc1S(=O)(=O)N1CCN(C(=O)c2cnn[nH]2)CC1(C)C [Example 138] = Condition not met

Field: next compound
Ask: hey, is pIC50 for this one >= 8? C[C@@H]1CN(C(=O)c2cnn[nH]2)[C@@H](C)CN1S(=O)(=O)c1cc(C(F)(F)F)cc(C(F)(F)F)c1 [Example 90]
Result: Condition met

###

compounds and their reported log10(IC50)
system-tested: recombinant human AKR1C3 (Homo sapiens)
Construct: GST (cleaved yes)
Sequence (P42330 1-323): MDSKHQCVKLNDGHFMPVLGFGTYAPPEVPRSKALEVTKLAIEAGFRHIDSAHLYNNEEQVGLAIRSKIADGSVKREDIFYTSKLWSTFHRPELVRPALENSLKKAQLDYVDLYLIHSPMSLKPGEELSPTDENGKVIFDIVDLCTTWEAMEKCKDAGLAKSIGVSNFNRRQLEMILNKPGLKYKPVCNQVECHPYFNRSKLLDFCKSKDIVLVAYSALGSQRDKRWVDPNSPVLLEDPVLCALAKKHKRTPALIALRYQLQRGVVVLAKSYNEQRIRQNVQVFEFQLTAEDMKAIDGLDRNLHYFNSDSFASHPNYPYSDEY
procedure-details: AKR1C3-inhibitory activity assay (generation of Coumberol from Coumberone)
recorded-conditions: Coumberone 0.3 μM, NADPH 10 μM, 22° C., typically 90 min, average or median values
Heads up: the numbers are on a log10 scale; they represent IC50 in nM.

Record `C[C@@H]1CN(C(=O)c2c[nH]nn2)[C@@H](C)CN1S(=O)(=O)c1cccnc1` / recombinant human AKR1C3 (Homo sapiens), log10(IC50) recorded as 1.89

Reported recombinant human AKR1C3 (Homo sapiens) log10(IC50) for item `C[C@@H]1CN(C(=O)c2cnn[nH]2)[C@@H](C)CN1S(=O)(=O)c1cc(Cl)ccc1C(F)(F)F` was 0.30

###

system-tested: recombinant human AKR1C3 (Homo sapiens)
Construct: GST (cleaved yes)
procedure-details: AKR1C3-inhibitory activity assay (generation of Coumberol from Coumberone)
recorded-conditions: Coumberone 0.3 μM, NADPH 10 μM, 22° C., typically 90 min, average or median values
Reported pIC50 values for a set of compounds
Lab note: report pIC50 as minus log10 of the concentration in molar units, number only.

• C[C@@H]1CN(S(=O)(=O)c2ccc(F)c(F)c2)C[C@H](C)N1C(=O)c1c[nH]nn1 = 7.33
• C[C@@H]1CN(C(=O)c2cnn[nH]2)C[C@H](C)N1S(=O)(=O)c1cc(Cl)cc(Cl)c1 = 8.70

Lab book: pIC50 of `CC1(C)CN(C(=O)c2c[nH]nn2)CCN1S(=O)(=O)c1cc(F)cc(F)c1` noted as 7.96

The recorded pIC50 for `C[C@@H]1CN(C(=O)c2c[nH]nn2)[C@@H](C)CN1S(=O)(=O)c1cccc(Cl)c1F` is 9.00

Data origin, for the record: patent US20200079758A1
